- Substrate: NCCc1c[nH]c2ccc(O)cc12
- RUN DESCRIPTION: colorimetric assay of CoASH release, non-linear regression
- Format: biochemical, Sparus aurata
- PROTOCOL CONDITIONS: near-saturating AcCoA; apparent Km
ASSAY METRIC: Km (µM)
# number only, unit µM dropped from output

Enquiry: Entry AANAT2 (Sparus aurata; I157M) (protein) MTQQVSGSPFFKPFFLKTPVSLLRQRRHTLPASEFRNLTPQDAISVFEIEREAFVSVSGECPLTLDEVLNFLGQCPELSLGWFEEGQLVAFIIGSGWGKERLSQEAMTQHVPDSPAVHIHVLSVHRHCRQQGKGSILLWRFLQYLRCIPGLRRALLMCEEYLVPFYQKAGFKEKGPSAISISNMQFQEMEYTIGGQAYTRRNSGC has what Km?
Return: 940

Data credit: paper PMC3111191
